B1: Connector enhancer of kinase suppressor of ras 2, residues 9 to 71; numbered along this chain, Q8WXI2 (parent)
chain: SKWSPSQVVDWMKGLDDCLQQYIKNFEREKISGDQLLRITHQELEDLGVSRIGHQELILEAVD

Variants of: B1
MEASUREMENT PROTOCOL: abundance fitness (aPCA) (normalised: wild type 0, dead -1); higher = more abundant; growth selection in yeast, the domain comes from the species named
CONDITION INFO: Homo sapiens
If the reported abundance fitness equals or exceeds -0.4, assign Fulfilled. If not, assign Not fulfilled.

Does the variant N25L have recorded abundance fitness that is -0.4 or more? Fulfilled

Consider the record given below.
# bool: abundance fitness of V62R >= -0.4 Fulfilled

Value source: the Human Domainome abundance scans (Beltran et al. 2025)
